Entries annotated with measured IC50
Biological target: interaction between His-TEV LRRC4B and rFAM19A5 (Homo sapiens)
Assay: Competitive inhibition assay (IC50), plate coated with His-TEV LRRC4B
Type: binding
Conditions: Table 15; His-TEV LRRC4B 100 nM coat; peptide 0.3-10000 nM; read-out: IC50 (nM), Inhibition on Complex Formulation between LRRC4B protein and recombinant FAM19A5 protein (1 ng/ml)
Ends that are not written are not given here.

>  <Residues>
GYTYFTTVTVETLETQPGEEA [FB-21 (wild-type)]

>  <Tgt>
interaction between His-TEV LRRC4B and rFAM19A5 (Homo sapiens)

>  <IC50 / nM>
138

$$$$
>  <Residues>
GYTYFTTVTVEWYETQPGEEA [FB-21 (W12Y13)]

>  <Tgt>
interaction between His-TEV LRRC4B and rFAM19A5 (Homo sapiens)

>  <IC50 / nM>
46.7

$$$$

---

Target: binding of FAM19A5 protein to full-length ectodomain of the LRRC4B protein (amino acids 36-576 of SEQ ID NO: 2) (Homo sapiens)
Sequence (Q7Z5A7 44-132): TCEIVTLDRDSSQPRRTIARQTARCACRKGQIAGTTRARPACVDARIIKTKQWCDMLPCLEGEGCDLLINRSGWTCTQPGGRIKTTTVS
Test: Competitive inhibition assay, plate coated with full-length ectodomain of LRRC4B (amino acids 36-576)
Conditions: Table 10; alanine/asparagine mutants
# Inhibition rate (%) LRRC4B (amino acids 36-576)-hFc values compiled below
Experimental endpoint: Inhibition rate (%) LRRC4B (amino acids 36-576)-hFc

>  <Residues>
GYTYFATVTVETLETQPGEE [FB-20[A5]]

>  <Uom>
%

>  <Assay value>
53.4

$$$$
>  <Residues>
GYTYFTTVTAETLETQPGEE [FB-20[A9]]

>  <Uom>
%

>  <Assay value>
21.5

$$$$
>  <Residues>
GYNYFTTVTVETLETQPGEE [FB-20[N2]]

>  <Uom>
%

>  <Assay value>
−0.7

$$$$
>  <Residues>
GYTYATTVTVETLETQPGEE [FB-20[A4]]

>  <Uom>
%

>  <Assay value>
2.7

$$$$
>  <Residues>
GYTYFNTVTVETLETQPGEE [FB-20[N5]]

>  <Uom>
%

>  <Assay value>
56.1

$$$$
>  <Residues>
GYTYFTAVTVETLETQPGEE [FB-20[A6]]

>  <Uom>
%

>  <Assay value>
17.9

$$$$
>  <Residues>
GYAYFTTVTVETLETQPGEE [FB-20[A2]]

>  <Uom>
%

>  <Assay value>
1.0

$$$$
>  <Residues>
GYTYFTTVTVNTLETQPGEE [FB-20[N10]]

>  <Uom>
%

>  <Assay value>
27.0

$$$$
>  <Residues>
GYTYFTTVTVEALETQPGEE [FB-20[A11]]

>  <Uom>
%

>  <Assay value>
73.4

$$$$
>  <Residues>
GYTYFTTVNVETLETQPGEE [FB-20[N8]]

>  <Uom>
%

>  <Assay value>
2.9

$$$$
>  <Residues>
GYTYFTTVTVATLETQPGEE [FB-20[A10]]

>  <Uom>
%

>  <Assay value>
19.6

$$$$
>  <Residues>
GYTYFTTATVETLETQPGEE [FB-20[A7]]

>  <Uom>
%

>  <Assay value>
26.8

$$$$

---

Target: binding of FAM19A5 protein to LRRC4B (amino acids 453-576)-hFc (Homo sapiens, UniProt Q7Z5A7)
Sequence (Q7Z5A7 44-132): as the sequence (Q7Z5A7 44-132) above
Test: Competitive inhibition assay, plate coated with LRRC4B (amino acids 453-576)-hFc, peptides at 20 nM
Details: Table 10; alanine/asparagine mutants
Experimental endpoint: Inhibition rate (%) LRRC4B (amino acids 453-576)-hFc

>  <Residues>
GYAYFTTVTVETLETQPGEE [FB-20[A2]]

>  <Assay value>
−0.4

$$$$
>  <Residues>
GYTYFATVTVETLETQPGEE [FB-20[A5]]

>  <Assay value>
22.2

$$$$
>  <Residues>
GYTYFTTVTNETLETQPGEE [FB-20[N9]]

>  <Assay value>
6.5

$$$$
>  <Residues>
GYNYFTTVTVETLETQPGEE [FB-20[N2]]

>  <Assay value>
−2.0

$$$$
>  <Residues>
GYTYFTTVTVETLETQPGEE [FB-20]

>  <Assay value>
63.2

$$$$
>  <Residues>
GYTYFTTATVETLETQPGEE [FB-20[A7]]

>  <Assay value>
7.9

$$$$
>  <Residues>
GYTYFNTVTVETLETQPGEE [FB-20[N5]]

>  <Assay value>
30.5

$$$$
>  <Residues>
GYTYFTTVTVETAETQPGEE [FB-20[A12]]

>  <Assay value>
56.2

$$$$
>  <Residues>
GYTYFTTVTVENLETQPGEE [FB-20[N11]]

>  <Assay value>
55.6

$$$$
>  <Residues>
GYTYFTTVTVNTLETQPGEE [FB-20[N10]]

>  <Assay value>
10.8

$$$$
>  <Residues>
GYTYFTTVNVETLETQPGEE [FB-20[N8]]

>  <Assay value>
−2.4

$$$$
>  <Residues>
GYTNFTTVTVETLETQPGEE [FB-20[N3]]

>  <Assay value>
4.0

$$$$
>  <Residues>
GYTYFTTVTAETLETQPGEE [FB-20[A9]]

>  <Assay value>
3.8

$$$$
